Measured Kd, listed per entry.
- assay system: Fibroblast growth factor 2 (Homo sapiens, UniProt P09038)
- Sequence (P09038 143-288 limits assumed): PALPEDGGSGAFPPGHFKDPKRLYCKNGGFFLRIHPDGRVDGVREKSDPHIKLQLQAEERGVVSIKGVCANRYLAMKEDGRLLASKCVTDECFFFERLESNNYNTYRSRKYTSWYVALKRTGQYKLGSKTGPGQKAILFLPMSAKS
- method: Dissociation constant for Fibroblast growth factor 2
# value in µM; strip the unit string

Some molecules with known Kd results, for comparison:
O=C(CN(Cc1ccccc1)C(=O)C1OC(OS(=O)(=O)O)C(OS(=O)(=O)O)C(OS(=O)(=O)O)C1OS(=O)(=O)O)NC1CCCCC1 (configuration not stated); 375
O=S(=O)(O)OC[C@@H]1O[C@@H](O[C@H]2[C@H](OS(=O)(=O)O)[C@H](OS(=O)(=O)O)C(OS(=O)(=O)O)O[C@H]2COS(=O)(=O)O)[C@@H](OS(=O)(=O)O)[C@H](OS(=O)(=O)O)[C@H]1OS(=O)(=O)O (some centres not stated); 13.3
CO[C@H]1O[C@@H](COCC(=O)N(CCOS(=O)(=O)O)CC(=O)NC2CCCCC2)[C@@H](OS(=O)(=O)O)[C@H](OS(=O)(=O)O)[C@H]1OS(=O)(=O)O; 550
O=S(=O)(O)OC[C@@H]1O[C@H](OS(=O)(=O)O)[C@H](OC2O[C@@H](COS(=O)(=O)O)[C@@H](S(=O)(=O)O)[C@H](O[C@H]3O[C@@H](COS(=O)(=O)O)[C@@H](OS(=O)(=O)O)[C@H](OS(=O)(=O)O)[C@H]3OS(=O)(=O)O)[C@H]2OS(=O)(=O)O)[C@@H](OS(=O)(=O)O)[C@@H]1OS(=O)(=O)O (some centres not stated); 1.18
O=S(=O)(O)c1ccc2c(S(=O)(=O)O)cc(S(=O)(=O)O)cc2c1 [NAPHTHALENE TRISULFONATE]; 223

Kd for O=S(=O)(O)OC[C@H]1OCC[C@@H](OCc2ccccc2)C1OS(=O)(=O)O (some centres not stated) is 5100

Kd for O=S(=O)(O)C[C@@H]1[C@H](OS(=O)(=O)O)O[C@H](OS(=O)(=O)O)[C@H](O[C@H]2O[C@@H](COS(=O)(=O)O)[C@@H](OS(=O)(=O)O)[C@H](OS(=O)(=O)O)[C@H]2OS(=O)(=O)O)[C@H]1OS(=O)(=O)O is 26.7

Kd for COC1OC(C)C(OCc2ccccc2)C(OS(=O)(=O)O)C1OS(=O)(=O)O (configuration not stated) is 249

Kd for O=S(=O)(O)OC[C@@H]1O[C@H](OS(=O)(=O)O)[C@H](OS(=O)(=O)O)[C@@H](OS(=O)(=O)O)[C@@H]1OS(=O)(=O)O is 155

Kd for [N-]=[N+]=NCC1OC(OS(=O)(=O)O)C(OS(=O)(=O)O)C(OS(=O)(=O)O)C1OS(=O)(=O)O (configuration not stated) is 258

Kd for O=S(=O)(O)OC[C@@H]1O[C@H](O[C@H]2[C@H](OS(=O)(=O)O)[C@H](OS(=O)(=O)O)C(OS(=O)(=O)O)O[C@H]2COS(=O)(=O)O)[C@@H](OS(=O)(=O)O)[C@H](OS(=O)(=O)O)[C@H]1OS(=O)(=O)O (some centres not stated) is 6.3

Kd for CO[C@@H]1O[C@@H](COS(=O)(=O)O)[C@@H](O[C@@H]2O[C@@H](COS(=O)(=O)O)[C@H](OS(=O)(=O)O)[C@H](OS(=O)(=O)O)[C@@H]2OS(=O)(=O)O)[C@H](OS(=O)(=O)O)[C@@H]1OS(=O)(=O)O is 16.2

Kd for O=S(=O)(O)C[C@@H]1[C@@H](O[C@]2(COS(=O)(=O)O)O[C@H](COS(=O)(=O)O)[C@@H](OS(=O)(=O)O)[C@@H]2OS(=O)(=O)O)O[C@@H](CS(=O)(=O)O)[C@@H](OS(=O)(=O)O)[C@H]1OS(=O)(=O)O is 5.5

These data points were gathered from ChEMBL document CHEMBL1149118.
